- TESTED_ON: ULK1 (human)
- ASSAY_NAME: KINOMEscan competition binding
- SETUP_CONDITIONS: compound 10.0 µM
RESULT_TYPE: kinase still bound, per cent of control (%)
Form entry: value (%) — number only.

Here's what some known entries look like.
[[record]]
compound = "COc1cc(N2CCN(C)CC2)ccc1Nc1ncc2c(n1)N(C)c1ccccc1C(=O)N2C"
tested_on = "ULK1 (human)"
observed_result = 2.9

[[record]]
compound = "COc1cc(N2CCN(C)CC2)ccc1Nc1ncc2c(n1)Nc1ccccc1NC2=O"
tested_on = "ULK1 (human)"
observed_result = 100

[[record]]
compound = "COc1cc(N2CCC(O)CC2)ccc1Nc1ncc2c(n1)N1CCc3cccc(c31)C(=O)N2C"
tested_on = "ULK1 (human)"
observed_result = 78

[[record]]
compound = "COc1cc(N2CCC(O)CC2)ccc1Nc1ncc2c(n1)N(C)c1ccccc1C(=O)N2C"
tested_on = "ULK1 (human)"
observed_result = 22

[[record]]
compound = "CN1C(=O)c2ccccc2N(C)c2nc(NS(=O)(=O)c3ccc(N)cc3)ncc21"
tested_on = "ULK1 (human)"
observed_result = 85

[[record]]
compound = "CSC1=NC(=O)/C(=C/c2c[nH]c(=O)c(-c3ccc(NS(C)(=O)=O)cc3)c2)S1"
tested_on = "ULK1 (human)"
observed_result = 23

[[record]]
compound = "COc1cc(N2CCN(C)CC2)ccc1Nc1ncc2c(n1)N(C1CCCC1)C(C)CC(=O)N2 (centres undefined)"
tested_on = "ULK1 (human)"
observed_result = 7.8

[[record]]
compound = "NS(=O)(=O)c1ccc(-c2ccc(/C=C3\\SC(=S)N(CC(=O)O)C3=O)o2)cc1"
tested_on = "ULK1 (human)"
observed_result = 29


COc1cc(N2CCN(C)CC2)ccc1Nc1ncc2c(n1)N(C)c1sccc1C(=O)N2C yielded kinase still bound, per cent of control of 6.5

###

- TESTED_ON: UniProt:Q9UK32
- Sequence (Q9UK32 whole entry, looked up): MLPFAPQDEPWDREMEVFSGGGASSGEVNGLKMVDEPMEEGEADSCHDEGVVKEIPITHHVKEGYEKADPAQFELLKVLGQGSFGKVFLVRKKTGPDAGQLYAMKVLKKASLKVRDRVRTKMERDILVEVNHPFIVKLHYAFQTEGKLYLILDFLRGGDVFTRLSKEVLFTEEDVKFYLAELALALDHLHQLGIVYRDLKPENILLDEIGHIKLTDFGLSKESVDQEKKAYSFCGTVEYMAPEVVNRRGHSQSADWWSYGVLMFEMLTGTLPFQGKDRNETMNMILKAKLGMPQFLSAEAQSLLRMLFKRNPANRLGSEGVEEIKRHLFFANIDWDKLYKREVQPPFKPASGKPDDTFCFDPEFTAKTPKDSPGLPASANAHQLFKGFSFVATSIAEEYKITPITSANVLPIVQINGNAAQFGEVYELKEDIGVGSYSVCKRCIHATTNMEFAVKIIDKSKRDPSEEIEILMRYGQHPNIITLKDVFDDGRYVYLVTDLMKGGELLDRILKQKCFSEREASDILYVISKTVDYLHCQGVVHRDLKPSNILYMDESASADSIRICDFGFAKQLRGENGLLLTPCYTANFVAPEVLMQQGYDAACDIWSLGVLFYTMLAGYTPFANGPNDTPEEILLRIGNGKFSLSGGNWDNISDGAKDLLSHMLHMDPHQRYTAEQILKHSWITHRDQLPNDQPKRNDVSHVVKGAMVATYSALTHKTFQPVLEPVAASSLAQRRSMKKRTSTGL
- ASSAY_NAME: KINOMEscan competition binding
- SETUP_CONDITIONS: compound 10.0 µM
Listed here: items and their measured kinase still bound, per cent of control.
Hi! Could you send only the number? It should be in %, unit omitted.

Use the examples below as a reference point.
[[record]]
smiles_record = "CN1C(=O)c2ccccc2N(C)c2nc(Nc3ccc(N4CCC(O)CC4)cc3)ncc21"
result_units = "%"
observed_result = 61

[[record]]
smiles_record = "CN1C(=O)[C@H]2CCC[C@H]2N(C2CCCC2)c2nc(Nc3ccc(C(N)=O)cc3)ncc21"
result_units = "%"
observed_result = 30

[[record]]
smiles_record = "COc1cc(N2CCN(C)CC2)ccc1Nc1ncc2c(n1)Nc1ccccc1NC2=O"
result_units = "%"
observed_result = 93


Quick note, kinase still bound, per cent of control for CN1CCN(c2ccc(C(=O)Nc3ncc4c(n3)N(C)c3ccccc3C(=O)N4C)cc2)CC1 landed at 100

Per the records, this molecule ( O=C1NC(=O)/C(=C/c2c[nH]c(=O)c(-c3ccc(N4CCNCC4)nc3)c2)S1 ) has kinase still bound, per cent of control equal to 34

Entry CN1C(=O)c2ccccc2N(C)c2nc(NS(=O)(=O)c3ccc(N)cc3)ncc21 , kinase still bound, per cent of control reported as 100

###

- TESTED_ON: DDR1 (human)
- ASSAY_NAME: KINOMEscan competition binding
- SETUP_CONDITIONS: compound 10.0 µM
RESULT_TYPE: kinase still bound, per cent of control (%)
# unit: % | format: bare number

[[record]]
smiles_record = "O=C1NC(=O)/C(=C/c2c[nH]c(=O)c(-c3ccc(N4CCNCC4)nc3)c2)S1"
result_type = "kinase still bound, per cent of control"
observed_result = 100

[[record]]
smiles_record = "CN1C(=O)c2ccccc2N(C)c2nc(Nc3ccc(N4CCC(O)CC4)cc3)ncc21"
result_type = "kinase still bound, per cent of control"
observed_result = 68

[[record]]
smiles_record = "COc1cc(N2CCC(O)CC2)ccc1Nc1ncc2c(n1)N1CCc3cccc(c31)C(=O)N2C"
result_type = "kinase still bound, per cent of control"
observed_result = 100

[[record]]
smiles_record = "Cc1cn(-c2cc(NC(=O)c3cccc4cc(-c5ccc(/C=C6\\SC(=N)NC6=O)o5)ccc34)cc(C(F)(F)F)c2)cn1"
result_type = "kinase still bound, per cent of control"
observed_result = 22

[[record]]
smiles_record = "COc1cc(N2CCN(C)CC2)ccc1Nc1ncc2c(n1)Nc1ccccc1NC2=O"
result_type = "kinase still bound, per cent of control"
observed_result = 81

[[record]]
smiles_record = "CN1C(=O)c2ccccc2N(C)c2nc(NS(=O)(=O)c3ccc(N)cc3)ncc21"
result_type = "kinase still bound, per cent of control"
observed_result = 100

[[record]]
smiles_record = "COc1cc(N2CCN(C)CC2)ccc1Nc1ncc2c(n1)N(C)c1sccc1C(=O)N2C"
result_type = "kinase still bound, per cent of control"
observed_result = 100

[[record]]
smiles_record = "NS(=O)(=O)c1ccc(-c2ccc(/C=C3/C(=O)NN(c4ccccc4)C3=O)o2)cc1"
result_type = "kinase still bound, per cent of control"
observed_result = 34


Entry under test: COc1cc(N2CCN(C)CC2)ccc1Nc1ncc2c(n1)N(C)c1ccccc1N(C)C2=O . Its kinase still bound, per cent of control was 93

molecule CN1CCN(c2ccc(C(=O)Nc3ncc4c(n3)N(C)c3ccccc3C(=O)N4C)cc2)CC1 , kinase still bound, per cent of control observed: 100

# kinase still bound, per cent of control (molecule: N=C1NC(=O)/C(=C/c2ccc(-c3csc4ccccc34)o2)S1 ) is 33

Please fill in: kinase still bound, per cent of control reported for O=C1NC(=O)/C(=C/c2ccc(-c3ccc4c(C(=O)Nc5cccc(C(F)(F)F)c5)cccc4c3)o2)S1 = 21

Consider CCN1CCN(Cc2cc(NC(=O)c3cccc4cc(-c5ccc(/C=C6\SC(=O)NC6=O)o5)ccc34)cc(C(F)(F)F)c2)CC1 . Its measured kinase still bound, per cent of control is 0.15
